experimental-system: Short transient receptor potential channel 4 (Mus musculus) (UniProt Q9QUQ5)
Sequence (Q9QUQ5 whole entry, looked up): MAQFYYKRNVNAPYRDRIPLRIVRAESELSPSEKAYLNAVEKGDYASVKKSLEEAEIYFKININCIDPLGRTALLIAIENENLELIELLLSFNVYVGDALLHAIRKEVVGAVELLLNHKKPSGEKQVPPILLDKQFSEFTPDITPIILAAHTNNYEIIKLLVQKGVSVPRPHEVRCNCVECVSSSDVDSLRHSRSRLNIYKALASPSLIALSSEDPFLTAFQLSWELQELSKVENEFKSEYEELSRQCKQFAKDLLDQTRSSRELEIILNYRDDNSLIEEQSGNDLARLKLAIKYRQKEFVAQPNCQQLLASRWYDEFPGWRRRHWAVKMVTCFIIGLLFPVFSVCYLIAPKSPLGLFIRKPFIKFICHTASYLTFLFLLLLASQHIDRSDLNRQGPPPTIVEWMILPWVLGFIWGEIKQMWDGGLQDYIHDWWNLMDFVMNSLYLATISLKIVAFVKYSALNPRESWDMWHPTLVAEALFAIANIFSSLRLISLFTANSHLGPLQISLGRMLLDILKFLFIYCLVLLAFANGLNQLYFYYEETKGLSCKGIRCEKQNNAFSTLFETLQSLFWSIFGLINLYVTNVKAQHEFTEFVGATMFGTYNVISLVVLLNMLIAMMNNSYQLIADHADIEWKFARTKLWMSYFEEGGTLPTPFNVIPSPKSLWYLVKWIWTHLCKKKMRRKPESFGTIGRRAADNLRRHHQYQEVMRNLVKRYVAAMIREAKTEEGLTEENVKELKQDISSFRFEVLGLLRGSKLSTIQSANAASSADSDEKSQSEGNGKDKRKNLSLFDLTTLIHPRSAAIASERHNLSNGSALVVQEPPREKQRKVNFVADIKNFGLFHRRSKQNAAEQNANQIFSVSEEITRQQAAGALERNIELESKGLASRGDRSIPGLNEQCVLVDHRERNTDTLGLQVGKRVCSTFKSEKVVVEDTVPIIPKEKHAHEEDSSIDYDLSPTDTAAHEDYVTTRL
protocol-summary: blockers of DAMGO-evoked TRPC4 calcium flux – cell-based, Fluo4, HEK293 TRPC4beta/mu-opioid, confirmation (AID 2636)
test-settings: at 10 µM
Calls of active or inactive are those of the source.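 Rule for the calls: active = calcium signal cut by more than 3 SD below the full-agonist control yet still positive, in both repeats and the earlier primary screen; inactive = the rest.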
Outcome field: choose from active, inactive

Below, 4 compounds whose answers are already recorded.
> print(dat)
                                   compound  label.value
1  CCOC(=O)C1CCCN(C(=O)CCCn2nnnc2CN2CCOCC2)C1 (stereo not given)     inactive
2  COC(=O)CSc1nnc2n(-c3ccc(OC)cc3)c(=O)c3c4c(sc3n12)CCCCC4       active
3   COc1ccc(CNCC(O)(c2ccccc2)c2ccccc2)cc1OC     inactive
4  Cc1ccc2nc(N(CCCN(C)C)C(=O)c3ccc(S(=O)(=O)N4CCc5ccccc5C4)cc3)sc2c1     inactive

Shift focus to the following entry.
Given `c1ccc(Cn2nnc3cnccc32)cc1` , state the outcome it received in this test.
active
